Hi there, I'd appreciate the recorded viability, T/C for every entry that follows.
System: 485176-168-R4-J1-PDC spheroids with HUVEC/MSC, viability
test-details: Anticancer human tumor 485176-168-R4-J1-PDC patient-derived pancreatic adenocarcinoma cell line growth inhibition [GQUAD]
test-conditions: second compound 1 µM; first compound 0.000999 µM; stronger effect = lower value
Please state the figure in %; there is no need to write the unit.

Name the recorded viability, T/C for CCc1c2c(nc3ccc(O)cc13)-c1cc3c(c(=O)n1C2)COC(=O)[C@]3(O)CC + Cc1cnc(CNC(=O)c2c(=O)c3ccc(N4CCCN(C)CC4)nc3n3c2sc2ccccc23)cn1 .
40.2

Lookup Cn1ncnc1[C@H]1c2n[nH]c(=O)c3cc(F)cc(c23)N[C@@H]1c1ccc(F)cc1 + Cc1[nH]c2ccc(F)cc2c1-c1nc2c3cccnc3c3ncccc3c2[nH]1
77.2

Lookup CC[C@@]1(O)C(=O)OCc2c1cc1n(c2=O)Cc2cc3c(CN(C)C)c(O)ccc3nc2-1 + Cc1cnc(CNC(=O)c2c(=O)c3ccc(N4CCCN(C)CC4)nc3n3c2sc2ccccc23)cn1
47.8

Lookup Cn1ncnc1[C@H]1c2n[nH]c(=O)c3cc(F)cc(c23)N[C@@H]1c1ccc(F)cc1 + Cc1cnc(CNC(=O)c2c(=O)c3ccc(N4CCCN(C)CC4)nc3n3c2sc2ccccc23)cn1
49.3

Lookup CC[C@@]1(O)C(=O)OCc2c1cc1n(c2=O)Cc2cc3c(CN(C)C)c(O)ccc3nc2-1 + Cc1[nH]c2ccc(F)cc2c1-c1nc2c3cccnc3c3ncccc3c2[nH]1
93.3

Lookup CCc1c2c(nc3ccc(O)cc13)-c1cc3c(c(=O)n1C2)COC(=O)[C@]3(O)CC + Cc1[nH]c2ccc(F)cc2c1-c1nc2c3cccnc3c3ncccc3c2[nH]1
71.4

Lookup Cn1ncnc1[C@H]1c2n[nH]c(=O)c3cc(F)cc(c23)N[C@@H]1c1ccc(F)cc1 + CN(C)c1ccc(Nc2c3ccc(NC(=O)CCN4CCCC4)cc3nc3cc(NC(=O)CCN4CCCC4)ccc23)cc1
108

Lookup CCc1c2c(nc3ccc(O)cc13)-c1cc3c(c(=O)n1C2)COC(=O)[C@]3(O)CC + CN(C)c1ccc(Nc2c3ccc(NC(=O)CCN4CCCC4)cc3nc3cc(NC(=O)CCN4CCCC4)ccc23)cc1
103

Lookup CC[C@@]1(O)C(=O)OCc2c1cc1n(c2=O)Cc2cc3c(CN(C)C)c(O)ccc3nc2-1 + CN(C)c1ccc(Nc2c3ccc(NC(=O)CCN4CCCC4)cc3nc3cc(NC(=O)CCN4CCCC4)ccc23)cc1
89.1

Lookup Cc1[nH]c2ccccc2c1CCNCc1ccc(/C=C/C(=O)NO)cc1 + Cc1cnc(CNC(=O)c2c(=O)c3ccc(N4CCCN(C)CC4)nc3n3c2sc2ccccc23)cn1
44.6

Lookup Cc1[nH]c2ccccc2c1CCNCc1ccc(/C=C/C(=O)NO)cc1 + Cc1[nH]c2ccc(F)cc2c1-c1nc2c3cccnc3c3ncccc3c2[nH]1
82.4

Lookup Cc1[nH]c2ccccc2c1CCNCc1ccc(/C=C/C(=O)NO)cc1 + CN(C)c1ccc(Nc2c3ccc(NC(=O)CCN4CCCC4)cc3nc3cc(NC(=O)CCN4CCCC4)ccc23)cc1
97.3

###

Tested on: 485176-168-R4-J1-PDC spheroids with HUVEC/MSC, viability
test-details: Anticancer human tumor 485176-168-R4-J1-PDC cell line growth inhibition [GQUAD];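 note: spheroids exposed to compounds for seven days before readout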;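 for viability, T/C: percent viability relative to DMSO vehicle control wells as 100%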
test-conditions: second compound 0.0316 µM; first compound 0.000999 µM; stronger effect = lower value
measurement-label: viability, T/C (%)
Please state the figure in %; there is no need to write the unit.

Name the recorded viability, T/C for CC[C@@]1(O)C(=O)OCc2c1cc1n(c2=O)Cc2cc3c(CN(C)C)c(O)ccc3nc2-1 + Cc1cnc(CNC(=O)c2c(=O)c3ccc(N4CCCN(C)CC4)nc3n3c2sc2ccccc23)cn1 .
94.4

Lookup Cc1[nH]c2ccccc2c1CCNCc1ccc(/C=C/C(=O)NO)cc1 + Cc1[nH]c2ccc(F)cc2c1-c1nc2c3cccnc3c3ncccc3c2[nH]1
99.1

Lookup CCc1c2c(nc3ccc(O)cc13)-c1cc3c(c(=O)n1C2)COC(=O)[C@]3(O)CC + Cc1cnc(CNC(=O)c2c(=O)c3ccc(N4CCCN(C)CC4)nc3n3c2sc2ccccc23)cn1
79.5

###

Hi there, I'd appreciate the recorded IC50 for every entry that follows.
System: 485176-168-R4-J1-PDC spheroids with HUVEC/MSC, viability
test-details: Anticancer human tumor 485176-168-R4-J1-PDC cell line growth inhibition [GQUAD];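 note: spheroids exposed to compounds for seven days before readout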
test-conditions: curve of first compound; second compound 0.1 µM
Please state the figure in nM; there is no need to write the unit.

Name the recorded IC50 for O=C(NO)c1cnc(N2CCN(S(=O)(=O)c3ccc4ccccc4c3)CC2)nc1 + Cc1[nH]c2ccc(F)cc2c1-c1nc2c3cccnc3c3ncccc3c2[nH]1 .
597

Lookup COc1cccc2c1C(=O)c1c(O)c3c(c(O)c1C2=O)CC(O)(C(=O)CO)CC3OC1CC(N)C(O)C(C)O1 (stereo not given) + Cc1[nH]c2ccc(F)cc2c1-c1nc2c3cccnc3c3ncccc3c2[nH]1
267

Lookup O=C(NO)c1cnc(N2CCN(S(=O)(=O)c3ccc4ccccc4c3)CC2)nc1 + CN(C)c1ccc(Nc2c3ccc(NC(=O)CCN4CCCC4)cc3nc3cc(NC(=O)CCN4CCCC4)ccc23)cc1
472

Lookup COc1cc(C2c3cc4c(cc3C(OC3OC5COC(C)OC5C(O)C3O)C3COC(=O)C23)OCO4)cc(OC)c1O (stereo not given) + Cc1cnc(CNC(=O)c2c(=O)c3ccc(N4CCCN(C)CC4)nc3n3c2sc2ccccc23)cn1
171

Lookup C=CCn1c(=O)c2cnc(Nc3ccc(N4CCN(C)CC4)cc3)nc2n1-c1cccc(C(C)(C)O)n1 + CN(C)c1ccc(Nc2c3ccc(NC(=O)CCN4CCCC4)cc3nc3cc(NC(=O)CCN4CCCC4)ccc23)cc1
544

Lookup COc1ccc([C@@H](O)c2cc(-c3ncnc4cc(N5CCOCC5)ccc34)c(F)cc2Cl)nn1 + CN(C)c1ccc(Nc2c3ccc(NC(=O)CCN4CCCC4)cc3nc3cc(NC(=O)CCN4CCCC4)ccc23)cc1
4750

Lookup COc1cc(C2c3cc4c(cc3C(OC3OC5COC(C)OC5C(O)C3O)C3COC(=O)C23)OCO4)cc(OC)c1O (stereo not given) + CN(C)c1ccc(Nc2c3ccc(NC(=O)CCN4CCCC4)cc3nc3cc(NC(=O)CCN4CCCC4)ccc23)cc1
476

Lookup CC[C@@]1(O)C(=O)OCc2c1cc1n(c2=O)Cc2cc3c(CN(C)C)c(O)ccc3nc2-1 + CN(C)c1ccc(Nc2c3ccc(NC(=O)CCN4CCCC4)cc3nc3cc(NC(=O)CCN4CCCC4)ccc23)cc1
185

###

System: 485176-168-R4-J1-PDC spheroids with HUVEC/MSC, viability
test-details: Anticancer human tumor 485176-168-R4-J1-PDC cell line growth inhibition [GQUAD];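 note: spheroids exposed to compounds for seven days before readout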;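 for viability, T/C: percent viability relative to DMSO vehicle control wells as 100%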
test-conditions: second compound 0.1 µM; first compound 0.316 µM; stronger effect = lower value
Lab note: anything with viability, T/C below 30% is marked MET; values at 30% or higher are marked NOT MET.

In the record for COc1cccc2c1C(=O)c1c(O)c3c(c(O)c1C2=O)CC(O)(C(=O)CO)CC3OC1CC(N)C(O)C(C)O1 (stereo not given) + Cc1cnc(CNC(=O)c2c(=O)c3ccc(N4CCCN(C)CC4)nc3n3c2sc2ccccc23)cn1 , is viability, T/C less than 30%?
NOT MET

Lookup CC1COCCN1c1cc(-c2ccnn2C)c2ccnc(-c3ccn[nH]3)c2n1 (stereo not given) + CN(C)c1ccc(Nc2c3ccc(NC(=O)CCN4CCCC4)cc3nc3cc(NC(=O)CCN4CCCC4)ccc23)cc1
MET

Lookup CC(=O)O[C@H]1C(=O)[C@@]2(C)[C@H]([C@H](OC(=O)c3ccccc3)[C@]3(O)C[C@H](OC(=O)[C@H](O)[C@@H](NC(=O)c4ccccc4)c4ccccc4)C(C)=C1C3(C)C)[C@]1(OC(C)=O)CO[C@@H]1C[C@@H]2O + Cc1[nH]c2ccc(F)cc2c1-c1nc2c3cccnc3c3ncccc3c2[nH]1
MET

Lookup CC1COCCN1c1cc(-c2ccnn2C)c2ccnc(-c3ccn[nH]3)c2n1 (stereo not given) + Cc1cnc(CNC(=O)c2c(=O)c3ccc(N4CCCN(C)CC4)nc3n3c2sc2ccccc23)cn1
MET

Lookup COc1ncnc(C2CC2)c1-c1ncc2cnn(Cc3ccc(-c4nc(C(F)(F)F)cn4C(C)C)cc3)c2n1 + Cc1[nH]c2ccc(F)cc2c1-c1nc2c3cccnc3c3ncccc3c2[nH]1
NOT MET

Lookup O=c1[nH]cc(F)c(=O)[nH]1 + CN(C)c1ccc(Nc2c3ccc(NC(=O)CCN4CCCC4)cc3nc3cc(NC(=O)CCN4CCCC4)ccc23)cc1
NOT MET

Lookup Cn1ncnc1[C@H]1c2n[nH]c(=O)c3cc(F)cc(c23)N[C@@H]1c1ccc(F)cc1 + CN(C)c1ccc(Nc2c3ccc(NC(=O)CCN4CCCC4)cc3nc3cc(NC(=O)CCN4CCCC4)ccc23)cc1
NOT MET

Lookup O=C(c1cc(Cc2n[nH]c(=O)c3ccccc23)ccc1F)N1CCN(C(=O)C2CC2)CC1 + CN(C)c1ccc(Nc2c3ccc(NC(=O)CCN4CCCC4)cc3nc3cc(NC(=O)CCN4CCCC4)ccc23)cc1
NOT MET

Lookup CC1COCCN1c1cc(C2(O)CC3CCC(C2)O3)c2cnn(-c3ccn[nH]3)c2n1 (stereo not given) + Cc1cnc(CNC(=O)c2c(=O)c3ccc(N4CCCN(C)CC4)nc3n3c2sc2ccccc23)cn1
MET

Lookup O=c1[nH]cc(F)c(=O)[nH]1 + Cc1[nH]c2ccc(F)cc2c1-c1nc2c3cccnc3c3ncccc3c2[nH]1
NOT MET

Data origin: PubChem BioAssay AID2060509
